# Measurement notes: Evaluation of stability in liver microsome
# Experimental parameters: mouse liver microsome, 1 μM, 37° C. for 30 minutes
Please go through the items and note down their Remaining (%).
Please respond with the number in % and leave the unit unwritten.

### Prompt Consider the molecule CCOc1c(C(=O)Nc2ccc(COC)cc2)c2c(N)ncnc2n1C1(C)CC1 [Example 127] and give its recorded Remaining (%).
### Response 70

### Prompt State its Remaining (%) for this molecule: COCc1ccc(NC(=O)c2c(OC)n(C3(C)CC3)c3ncnc(N)c23)cc1 [Example 57]
### Response 86

### Prompt Look up and state reported Remaining (%) for COCc1ccc(NC(=O)c2c(C#CC(C)(C)N)n(C3(C)CC3)c3ncnc(N)c23)cc1 [Example 134]
### Response 79

### Prompt Provide Remaining (%) value for the following molecule: [2H]C([2H])([2H])OCc1ccc(NC(=O)c2cn(C(C)(C)C)c3ncnc(N)c23)cc1 [Example 35]
### Response 58

### Prompt Return value of Remaining (%) for input COCc1ccc(NC(=O)c2cn(C(C)(C)C(F)F)c3ncnc(N)c23)cc1 [Example 50] , no commentary.
### Response 53

### Prompt Provide Remaining (%) value for the following molecule: COCc1ccc(NC(=O)c2c(C#Cc3ccccn3)n(C3(C)CC3)c3ncnc(N)c23)cc1 [Example 172]
### Response 61

### Prompt Please report the measured Remaining (%) for COCc1ccc(NC(=O)c2c(-c3ccc(O)cc3)n(C3(C)CC3)c3ncnc(N)c23)cc1 [Example 148]
### Response 61

### Prompt Read off the recorded Remaining (%) for COCc1ccc(NC(=O)c2c(C#Cc3cnc[nH]3)n(C3(C)CC3)c3ncnc(N)c23)cc1 [Example 191]
### Response 53

### Prompt Read off the recorded Remaining (%) for COCc1ccc(NC(=O)c2cn(C(C)(C)CF)c3ncnc(N)c23)cc1 [Example 26]
### Response 60

### Prompt Look up and state reported Remaining (%) for COCc1ccc(NC(=O)c2c(C#CCN3CCN(C)CC3)n(C3(C)CC3)c3ncnc(N)c23)cc1 [Example 132]
### Response 77

### Prompt Report Remaining (%) for Nc1ncnc2c1c(C(=O)Nc1ccc(Oc3ccccc3)cc1)cn2C1CCCC1 [Compound 2 of Comparative Examples, reference compound]
### Response 0

### Prompt For the molecule COCc1ccc(NC(=O)c2c(C#Cc3ccccc3OC)n(C3(C)CC3)c3ncnc(N)c23)cc1 [Example 113] , report Remaining (%).
### Response 79

### Prompt Using the record for COCc1ccc(NC(=O)c2c(C3=CCOCC3)n(C3(C)CC3)c3ncnc(N)c23)cc1 [Example 203] , state its measured Remaining (%).
### Response 68

### Prompt For the molecule COCc1ccc(NC(=O)c2c(C#Cc3c[nH]c4ccccc34)n(C3(C)CC3)c3ncnc(N)c23)cc1 [Example 121] , give its reported Remaining (%).
### Response 74

### Prompt Give the value of Remaining (%) reported for the following: COCc1ccc(NC(=O)c2cn(C3(C(F)F)CC3)c3ncnc(N)c23)cc1 [Example 46]
### Response 65

### Prompt Provide Remaining (%) value for the following molecule: CC(C)(C)n1cc(C(=O)Nc2ccc(-c3cc[nH]n3)cc2)c2c(N)ncnc21 [Example 80]
### Response 50

* * *

# Measurement notes: Evaluation of stability in liver microsome
# Experimental parameters: mouse liver microsome, 1 μM, 37° C. for 30 minutes
Would you kindly list Remaining (%) for each of these compounds?
Give the value in % but do not write % after it.

### Prompt Look up and report measured Remaining (%) for this entry: CCOc1c(C(=O)Nc2ccc(-c3ccco3)cc2)c2c(N)ncnc2n1C1(C)CC1
### Response 55

### Prompt Answer with the recorded Remaining (%) of COCc1ccc(NC(=O)c2c(C#CC(O)C3CC3)n(C3(C)CC3)c3ncnc(N)c23)cc1 (stereo not drawn) only.
### Response 52

### Prompt Tell me Remaining (%) reported for COCc1ccc(NC(=O)c2c(C#CCN3CCOCC3)n(C3(C)CC3)c3ncnc(N)c23)cc1F
### Response 77

### Prompt Answer with the recorded Remaining (%) for the compound listed here: COCc1ccc(NC(=O)c2c(OCC(C)C)n(C3(C)CC3)c3ncnc(N)c23)cc1
### Response 51

### Prompt Answer with the recorded Remaining (%) for the compound listed here: COCc1ccc(NC(=O)c2c(C#Cc3ccc4c(c3)NCCO4)n(C3(C)CC3)c3ncnc(N)c23)cc1
### Response 85

### Prompt Please give the documented Remaining (%) of COCc1ccc(NC(=O)c2c(C#CC3(O)CCOC3)n(C3(C)CC3)c3ncnc(N)c23)cc1 (stereo not drawn)
### Response 72

### Prompt Please list Remaining (%) recorded for the compound CCn1cc(C#Cc2c(C(=O)Nc3ccc(COC)cc3)c3c(N)ncnc3n2C2(C)CC2)cn1
### Response 73

### Prompt Name the recorded Remaining (%) of the item COCc1ccc(NC(=O)c2c(C#Cc3cccnc3)n(C3(C)CC3)c3ncnc(N)c23)cc1 in your answer.
### Response 60

### Prompt Please report Remaining (%) for the following compound: COCc1ccc(NC(=O)c2c(C#Cc3cn(C)nc3C)n(C3(C)CC3)c3ncnc(N)c23)cc1
### Response 62
